Reference source: patent US20260031189A1

Quick reference: IC50 of the listed items.
- STUDY_TARGET: T1, HLA-DRA*01:01/DRB1*15:01 soluble heterodimer (human)
- T1 chain 1: not shown
- T1 chain 2: not shown
- PROCEDURE_TEXT: FP competition with FITC probe, HLA-sDM, average
Numbers only; they are read as nM.

Please review the entries below; each comes with its answer.
[[record]]
binder = "PTESIVRFPNITNLCPF (modifications not checked) [S322-338]"
assay_metric = "IC50"
assay_result = 26

[[record]]
binder = "ADAGFIKQYGDCLGDIA (modifications not checked) [S829-845]"
assay_metric = "IC50"
assay_result = 56

[[record]]
binder = "CSNLLLQYGSFCTQ (modifications not checked) [S749-762]"
assay_metric = "IC50"
assay_result = 270


Could you now consider this next binder?
Prompt: # IC50 lookup, item FQTLLALHRSYLTPGDS (modifications not checked) [S238-254]
Response: 140
